As shown below, each of these binders has a reported DC EC50, CD86 surface expression, with cross-linker value.
# measurement-target: Full length human CD40 (huCD40) on cells (human, UniProt P25942 21-277)
# Sequence (P25942 21-277): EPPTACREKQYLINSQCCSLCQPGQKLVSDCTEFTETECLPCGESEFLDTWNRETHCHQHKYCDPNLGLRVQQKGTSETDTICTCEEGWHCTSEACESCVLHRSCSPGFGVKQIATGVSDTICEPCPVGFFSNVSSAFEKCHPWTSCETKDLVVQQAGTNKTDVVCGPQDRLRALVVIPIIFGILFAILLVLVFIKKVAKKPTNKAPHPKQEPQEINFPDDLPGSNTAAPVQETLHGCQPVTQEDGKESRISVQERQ
# test-method-notes: cell-based or functional assay
Kindly provide the numeric value in µg/mL only, without the unit symbol.

{"binder": "C40M18 (antibody, human IgG1, lambda, V domains shown, Full-length IgG1/lambda; from OmniRat (OMT); VH C40H48, VL C40L64) VH: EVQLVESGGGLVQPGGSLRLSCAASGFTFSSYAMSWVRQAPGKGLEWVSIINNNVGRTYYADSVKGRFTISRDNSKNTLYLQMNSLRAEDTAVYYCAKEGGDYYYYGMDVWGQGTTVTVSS VL: SYELTQPPSVSVSPGQTASITCSGDKLGDKYVCWYQQKPGQSPVVVIYQDSKRPSGIPERFSGSNSGNTATLTISGTQAMDEAYYYCQAWVSSTVVFGGGTKLTVLG", "observed": 0.0302}
{"binder": "C40M9 (antibody, human IgG1, lambda, V domains shown) VH: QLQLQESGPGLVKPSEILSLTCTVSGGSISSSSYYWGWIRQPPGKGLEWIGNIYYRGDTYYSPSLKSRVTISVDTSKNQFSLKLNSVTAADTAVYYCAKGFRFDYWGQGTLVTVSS VL: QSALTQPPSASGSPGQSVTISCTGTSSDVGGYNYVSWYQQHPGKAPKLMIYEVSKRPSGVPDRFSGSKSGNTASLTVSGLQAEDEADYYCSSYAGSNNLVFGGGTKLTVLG", "observed": 0.103}
{"binder": "C40M67 (antibody, human IgG1, kappa, V domains shown, Full-length IgG1/kappa; from phage display) VH: EVQLLESGGGLVQPGGSLRLSCAASGFTFSDYAMNWVRQAPGKGLEWVSGIKSGGSSKYYADSVKGRFTISRDNSKNTLYLQMNSLRAEDTAVYYCAKHVDFYRALDYWGQGTLVTVSS VL: EIVLTQSPGTLSLSPGERATLSCRASQSVKNSSLAWYQQKPGQAPRLLIYTASSRATGIPDRFSGSGSGTDFTLTISRLEPEDFAVYYCQQSSAPPWTFGQGTKVEIKR", "observed": 0.202}

Next binder, DC EC50, CD86 surface expression, with cross-linker to be filled in.
-- ask Note down DC EC50, CD86 surface expression, with cross-linker recorded for C40M12 (antibody, human IgG1, lambda, V domains shown, Full-length IgG1/lambda; from OmniRat (OMT)) VH: EVQLVESGGGLVQPGGSLRLSCAASGFTFGSYAMSWVRQAPGKGLEWVSVISDSGGRTYYADSVKGRFTISRDYSKNTLYLQMNSLRAEDTAVYYCAKEGGDYYYYGMDVWGQGTTVTVSS VL: SYELTQPPSVSVSPGQTASIICSGDKLGDKYVCWYQQKPGQSPVVVIYHDNKRPSGIPERFSGSNSGNTATLTISGTQAMDEADYYCQVWDSSTVVFGGGTKLTVLG
-- reply 0.502
